Entries annotated with measured Ratio over Background
target system: T1, Insulin receptor prepared according to Bass et al., 1996: soluble human insulin receptor-immunoglobulin heavy … (human, UniProt P06213 28-956)
T1 construct: extracellular domain; Eu3+-labelled in TR-FRET; also called IR; sIR-Fc; not shown: immunoglobulin heavy chain constant domains that replace the transmembrane and i
assay overview: phage ELISA vs milk
Positions of bridges follow the written chain, without caps; N, C: chain ends. No end group written: not given here.
Kindly answer with a numeric value in fold, unit omitted.

1) GRTMAVMAAGGPDDPFYHKLSELVQGG [B6Hα-2-D6-IR] :: 1

Q) // returns reported Ratio over Background for input SRVAATKEKRPSDDPFYHKLSELLQGS [B6Hα-3-F7-IR]
A) 1

Q) Bench note: what Ratio over Background did SAAQLFFQESFYDWFLRQVAESSQPN [H2CA-4-F11-IGFR] show?
A) 1

Q) For the binder shown here, IWATGDFYRLLSQLVMGRVGT [20E2B-2-88-IGFR] , give the reported Ratio over Background.
A) 0.8

Q) Quick one: Ratio over Background of CCLLCRFQQNFYDWFVCQGISRLRPL (disulfide (positions not given here); also: disulfide among the four cysteines, pairing not given here) [X2CA-2-B4-IGFR] ?
A) 1.1

Q) # input binder: FFYRCLSRLLGGQLGSRLGLSCIGD (disulfide 5-22 (inferred)) [20C-3-E4-IGFR] ; wanted: its Ratio over Background
A) 1.3

Q) # get_value(readout='Ratio over Background', item= LSSDGQFYRALNLLLQGSAGR [20E2B-2-B7-IGFR] )
A) 0.9

Q) Which Ratio over Background value belongs to SACQFDCHENFYDWFARQVSGGAAYG (not fully specified (bridges); cysteine pairing not given here) [H2CA-4-H8-IGFR] ?
A) 1

Q) What value of Ratio over Background has been recorded for this entry: RQGTGSFYLMLEQLLVGARGP [20E2B-4-G11-IGFR]
A) 0.6

Q) Which Ratio over Background reading was recorded for the binder NSRDGGFYLQLERLLGFPVTG [20E2B-3-D4-IGFR] ?
A) 0.8

Q) Give the measured Ratio over Background of KLHNLMFYYGLQRLVWGAGLG [20E2B-4-H3-IGFR] .
A) 1.1

Q) Requested read-out: Ratio over Background. Entry: AETSVQVGWIRLQSVWPGEHWNTVDPFYHKLSELLRGSGA [B6L-4-D7-IR]
A) 1.4

The reported numbers originate from patent US20030236190A1.
